EXPERIMENTAL_TARGET: aldosterone receptor (Rattus norvegicus, UniProt P22199)
Construct: centrifuged at 105,000 g for 30 minutes, and then a supernatant was collected as a renal soluble fraction
Sequence (P22199 1-981): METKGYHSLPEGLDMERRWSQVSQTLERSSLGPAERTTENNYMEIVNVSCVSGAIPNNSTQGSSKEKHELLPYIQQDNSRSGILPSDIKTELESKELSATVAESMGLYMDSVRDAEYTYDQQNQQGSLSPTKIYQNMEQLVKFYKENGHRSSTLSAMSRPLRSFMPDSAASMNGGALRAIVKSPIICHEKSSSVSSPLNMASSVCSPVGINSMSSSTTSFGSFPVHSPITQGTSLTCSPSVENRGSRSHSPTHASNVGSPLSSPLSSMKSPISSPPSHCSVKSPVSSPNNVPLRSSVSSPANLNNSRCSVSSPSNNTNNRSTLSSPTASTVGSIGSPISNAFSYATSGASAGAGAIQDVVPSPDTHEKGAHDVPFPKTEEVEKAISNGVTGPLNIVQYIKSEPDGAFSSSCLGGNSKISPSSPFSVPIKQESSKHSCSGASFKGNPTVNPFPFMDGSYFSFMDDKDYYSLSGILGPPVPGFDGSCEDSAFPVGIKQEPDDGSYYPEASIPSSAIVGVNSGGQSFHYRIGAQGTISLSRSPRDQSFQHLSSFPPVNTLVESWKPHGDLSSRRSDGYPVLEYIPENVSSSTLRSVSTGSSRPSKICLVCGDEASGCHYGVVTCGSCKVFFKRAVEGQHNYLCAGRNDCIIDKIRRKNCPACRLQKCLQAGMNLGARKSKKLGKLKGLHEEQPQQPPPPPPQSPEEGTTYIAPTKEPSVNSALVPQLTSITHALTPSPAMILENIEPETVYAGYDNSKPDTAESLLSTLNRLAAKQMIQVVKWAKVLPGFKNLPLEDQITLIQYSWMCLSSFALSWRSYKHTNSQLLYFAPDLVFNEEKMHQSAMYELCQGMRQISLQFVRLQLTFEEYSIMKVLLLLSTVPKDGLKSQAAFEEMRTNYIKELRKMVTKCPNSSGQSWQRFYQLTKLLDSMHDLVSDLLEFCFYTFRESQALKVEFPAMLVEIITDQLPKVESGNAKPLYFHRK
PROTOCOL_NOTES: Binding inhibition test for aldosterone receptor ([3H]aldosterone, rat renal soluble fraction)
EXPERIMENTAL_CONTEXT: [3H]aldosterone 2 nM, rat renal soluble fraction, in the presence of 2 μM RU-486, 4° C. about 18 hours; read-out: MR IC50
pIC50: −log10 of the molar value.
MEASURE: pIC50

# count of solved cases: 2
{"COMPOUND_STRUCTURE_STRING": "COc1cc(NC(=O)c2ccc(-c3ccccc3C(F)(F)F)cc2)ccc1S(=O)(=O)N(C)C", "MEASURE": "pIC50", "RESULT_VALUE": 6.15}
{"COMPOUND_STRUCTURE_STRING": "COc1cc(C(=O)Nc2ccc(-c3ccccc3OC(F)(F)F)c(CCO)c2)ccc1S(N)(=O)=O", "MEASURE": "pIC50", "RESULT_VALUE": 6.46}

(a) COc1cc(NC(=O)c2ccc(-c3ccccc3OC(F)(F)F)c(CNC3CCC3)c2)ccc1S(N)(=O)=O
(b) COc1cc(NC(=O)c2ccc(-c3ccccc3OC(F)(F)F)c(CO)c2)ccc1S(N)(=O)=O
Prompt line: Pick the one with the larger pIC50: a vs b Answer by stating the label of the chosen item.
Response line: b
(b: 7.22, a: 6.44)
